TARGET UNDER TEST: jack bean urease (Canavalia ensiformis, UniProt P07374)
Sequence (P07374 whole entry, looked up): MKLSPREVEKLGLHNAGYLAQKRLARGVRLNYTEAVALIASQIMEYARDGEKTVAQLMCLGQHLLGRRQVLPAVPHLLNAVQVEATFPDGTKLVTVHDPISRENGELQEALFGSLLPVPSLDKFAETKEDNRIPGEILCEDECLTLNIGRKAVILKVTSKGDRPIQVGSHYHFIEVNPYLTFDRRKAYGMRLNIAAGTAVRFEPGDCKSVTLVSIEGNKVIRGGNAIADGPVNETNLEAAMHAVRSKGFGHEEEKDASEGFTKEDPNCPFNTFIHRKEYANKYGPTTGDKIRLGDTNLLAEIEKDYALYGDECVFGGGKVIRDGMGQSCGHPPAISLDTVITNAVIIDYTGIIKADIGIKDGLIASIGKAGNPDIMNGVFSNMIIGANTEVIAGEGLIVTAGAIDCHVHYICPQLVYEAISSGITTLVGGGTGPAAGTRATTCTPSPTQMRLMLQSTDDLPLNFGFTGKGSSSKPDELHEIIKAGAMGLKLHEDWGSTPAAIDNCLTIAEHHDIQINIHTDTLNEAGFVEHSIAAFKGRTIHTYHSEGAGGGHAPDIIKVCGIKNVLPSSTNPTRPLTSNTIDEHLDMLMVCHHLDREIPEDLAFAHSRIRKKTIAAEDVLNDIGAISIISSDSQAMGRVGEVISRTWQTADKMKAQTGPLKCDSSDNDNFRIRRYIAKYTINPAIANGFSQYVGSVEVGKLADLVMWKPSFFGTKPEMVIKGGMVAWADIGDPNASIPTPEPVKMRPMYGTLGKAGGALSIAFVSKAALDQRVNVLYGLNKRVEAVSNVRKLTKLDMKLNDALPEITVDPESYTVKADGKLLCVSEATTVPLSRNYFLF
VALUE KIND: pKi
Friendly reminder that pKi comes from taking -log10 of the concentration in mol/L.

Provide measured pKi value, entry: C=C[C@@H](C1=CC(=O)C=C(OC)C1=O)c1ccccc1 [compound 1, 3-methoxydalbergione]
3.86

Data provenance is paper PMC6270924.
